test: Cytotoxicity to cells in the viral inhibition assay (MTT assay); assay type: cell-based; conditions: human, primary human macrophages, additional compounds, same assay system, MTT, read-out: TC50 (the source's name)
Outcome measure: CC50

Sample records with CC50:
| Chemical structure | Outcome measure | Result |
| --- | --- | --- |
| COc1cc2ccccc2cc1C(=O)NC(=N)N | CC50 | > 50 µM |
| N=C(N)NC(=O)c1ccc2c(C3CC3)cccc2c1 | CC50 | 10 to 50 µM |
| Cc1nn(C)c(C)c1-c1cccc2cc(C(=O)NC(=N)N)ccc12 | CC50 | > 50 µM |

Input line: Value lookup for CC50; key = `Cc1ccc2cc(C(=O)NC(=N)N)ccc2c1`
Output line: 10 to 50 µM

Input line: Value lookup for CC50; key = `N=C(N)NC(=O)c1ccc2c(-c3cccs3)cccc2c1`
Output line: 10 to 50 µM

###

target: Vpu (Human immunodeficiency virus type 1 group M subtype B, UniProt P05919); construct: expressed in transfected cells; assay: Bacterial bioassay, Vpu; format: cell-based; conditions: mean bacterial bioassay score; Vpu of HIV
Sequence (P05919 whole entry): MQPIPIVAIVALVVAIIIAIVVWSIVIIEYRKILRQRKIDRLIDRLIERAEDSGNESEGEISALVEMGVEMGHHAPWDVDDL
We use 0.5 as the dividing line for Average Bacterial Assay Score, Vpu: on or above the line is true, below is false.

Answered examples (5):
| Molecule | Assayed target | Assigned category |
| --- | --- | --- |
| COc1cc2ccccc2cc1C(=O)NC(=N)N | Vpu (Human immunodeficiency virus type 1 group M subtype B, UniProt P05919) | true |
| N=C(N)NC(=O)c1ccc2c(-c3ccoc3)cccc2c1 | Vpu (Human immunodeficiency virus type 1 group M subtype B, UniProt P05919) | false |
| CC(=O)Nc1ccc(-c2cccc3cc(C(=O)NC(=N)N)ccc23)cc1 | Vpu (Human immunodeficiency virus type 1 group M subtype B, UniProt P05919) | false |
| Cn1cc(-c2cccc3cc(C(=O)NC(=N)N)ccc23)cn1 | Vpu (Human immunodeficiency virus type 1 group M subtype B, UniProt P05919) | true |
| N=C(N)NC(=O)C=Cc1cccc(Br)c1 [BIT067, (3-Bromocinnamoyl)guanidine, reference compound] | Vpu (Human immunodeficiency virus type 1 group M subtype B, UniProt P05919) | true |

Input line: Could you verify whether the entry `CC(=O)Nc1cccc(-c2cccc3cc(C(=O)NC(=N)N)ccc23)c1` shows Average Bacterial Assay Score, Vpu of no less than 0.5?
Output line: true

Input line: Could you verify whether the entry `N=C(N)NC(=O)c1ccc2c(-c3ccccc3Cl)cccc2c1` shows Average Bacterial Assay Score, Vpu of no less than 0.5?
Output line: false

Input line: Could you verify whether the entry `COc1ccc2cc(C(=O)NC(=N)N)ccc2c1Br` shows Average Bacterial Assay Score, Vpu of no less than 0.5?
Output line: false

Input line: Could you verify whether the entry `N=C(N)NC(=O)/C=C/c1cccc(C(=O)c2ccccc2)c1` shows Average Bacterial Assay Score, Vpu of no less than 0.5?
Output line: true

Input line: Could you verify whether the entry `Cc1cccc2cc(C(=O)NC(=N)N)ccc12` shows Average Bacterial Assay Score, Vpu of no less than 0.5?
Output line: true

Input line: Could you verify whether the entry `N=C(N)NC(=O)c1ccc2c(-c3ccsc3)cccc2c1` shows Average Bacterial Assay Score, Vpu of no less than 0.5?
Output line: true

Input line: Could you verify whether the entry `CC(=O)O.Cn1cc(-c2ccc3cc(C(=O)NC(=N)N)ccc3c2)cn1` shows Average Bacterial Assay Score, Vpu of no less than 0.5?
Output line: false

###

experiment: Cytotoxicity to cells in the viral inhibition assay (MTT assay); assay type: cell-based; settings: human, primary human macrophages, additional compounds, same assay system, MTT, read-out: TC50 (the source's name)
Collected CC50 values appear next to each entry.

| Chemical structure | CC50 |
| --- | --- |
| N=C(N)NC(=O)c1ccc2c(-c3ccccc3)cccc2c1 | 10 to 50 µM |
| CC(C)Cn1cc(-c2cccc3cc(C(=O)NC(=N)N)ccc23)cn1 | 10 to 50 µM |
| N=C(N)NC(=O)c1ccc2c(-c3ccoc3)cccc2c1 | 10 to 50 µM |

Input line: Value lookup for CC50; key = `COc1c(C(=O)NC(=N)N)ccc2ccccc12`
Output line: > 50 µM

Input line: Value lookup for CC50; key = `COc1cc(C(=O)NC(=N)N)c(OC)c2ccccc12`
Output line: 10 to 50 µM

Input line: Value lookup for CC50; key = `N=C(N)NC(=O)c1ccc2c(Cl)cccc2c1`
Output line: 10 to 50 µM

Input line: Value lookup for CC50; key = `N=C(N)NC(=O)c1ccc2cc(-c3ccsc3)ccc2c1`
Output line: < 10 µM

Input line: Value lookup for CC50; key = `N=C(N)NC(=O)c1ccc2c(Br)cccc2c1`
Output line: 10 to 50 µM

###

Collected Average Bacterial Assay Score, Den M values appear next to each entry.
molecular target: Den M (Dengue virus type 1, UniProt P33478); construct: expressed in transfected cells; experiment: Bacterial bioassay, Den M; assay type: cell-based; design: scale not given here; conditions: mean bacterial bioassay score; M protein of Dengue virus
Sequence (P33478 206-280): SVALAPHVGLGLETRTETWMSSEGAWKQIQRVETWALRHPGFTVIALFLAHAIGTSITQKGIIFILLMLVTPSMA
The answer should be a number; do not append a unit.

| Chemical structure | Average Bacterial Assay Score, Den M |
| --- | --- |
| COc1ccc(-c2cccc3cc(C(=O)NC(=N)N)ccc23)c(OC)n1 | 1.00 |
| N=C(N)NC(=O)/C=C/c1cccc2c1CCC2 | 2.2 |
| CC(C)Cn1cc(-c2cccc3cc(C(=O)NC(=N)N)ccc23)cn1 | 1.60 |
| N=C(N)NC(=O)c1ccc2cc(-c3ccsc3)ccc2c1 | 1.15 |
| N=C(N)NC(=O)c1ccc2c(-c3cccs3)cccc2c1 | 2.40 |
| N=C(N)NC(=O)/C=C/c1cccc(C(=O)c2ccccc2)c1 | 1.5 |
| CC(=O)Nc1cccc(-c2cccc3cc(C(=O)NC(=N)N)ccc23)c1 | 0.35 |

Input line: Value lookup for Average Bacterial Assay Score, Den M; key = `CS(=O)(=O)Nc1ccc(-c2cccc3cc(C(=O)NC(=N)N)ccc23)cc1`
Output line: 0.15

###

target: HCV p7 (Hepatitis C virus genotype 1a, UniProt P27958); construct: expressed in transfected cells; assay: Bacterial bioassay, HCV p7; format: cell-based; parameters: scale not given here; details: mean bacterial bioassay score; p7 of HCV
Sequence (P27958 747-809): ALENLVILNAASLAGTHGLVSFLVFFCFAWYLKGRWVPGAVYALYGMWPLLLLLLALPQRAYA
Outcome measure: Average Bacterial Assay Score, HCV p7
The answer should be a number; do not append a unit.

Sample records with Average Bacterial Assay Score, HCV p7:
| Chemical structure | Assayed target | Average Bacterial Assay Score, HCV p7 |
| --- | --- | --- |
| N=C(N)NC(=O)c1ccc2c(C3CC3)cccc2c1 | HCV p7 (Hepatitis C virus genotype 1a, UniProt P27958) | 0.80 |
| CC(=O)Nc1cccc(-c2cccc3cc(C(=O)NC(=N)N)ccc23)c1 | HCV p7 (Hepatitis C virus genotype 1a, UniProt P27958) | 0.30 |
| N=C(N)NC(=O)c1ccc2c(Cl)cccc2c1 | HCV p7 (Hepatitis C virus genotype 1a, UniProt P27958) | 1.30 |

Input line: What is its Average Bacterial Assay Score, HCV p7 for HCV p7 (Hepatitis C virus genotype 1a, UniProt P27958)? Entry: `COc1ccc(-c2cccc3cc(C(=O)NC(=N)N)ccc23)c(OC)n1`
Output line: 0.30

###

experiment: Cytotoxicity to cells in the viral inhibition assay (MTT assay); format: cell-based; settings: human, primary human macrophages, 50% cell viability, MTT assay, estimated in separate experiments at greater compound concentrations, read-out: TC50 (the source's name)
Collected CC50 values appear next to each entry.

| Chemical structure | CC50 |
| --- | --- |
| Cn1cc(-c2cccc3cc(C(=O)NC(=N)N)ccc23)cn1 | > 200 µM |
| N=C(N)NC(=O)/C=C/c1cccc2c1OCO2 | > 100 µM |

Input line: Value lookup for CC50; key = `Cc1cccc2cc(C(=O)NC(=N)N)ccc12`
Output line: > 300 µM

Input line: Value lookup for CC50; key = `N=C(N)NC(=O)/C=C/c1cccc2c1CCC2`
Output line: > 100 µM

###

target: Vpu (Human immunodeficiency virus type 1 group M subtype B); construct: expressed in transfected cells; experiment: Bacterial bioassay, Vpu; format: cell-based; details: mean bacterial bioassay score; Vpu of HIV
API: label(entry) gives class 1 if the entry's Average Bacterial Assay Score, Vpu is strictly smaller than 0.4; on equality or larger values it gives class 0.

Input line: Does `N=C(N)NC(=O)c1ccc2c(C3CC3)cccc2c1` have Average Bacterial Assay Score, Vpu strictly under 0.4?
Output line: class 0

Input line: Does `Cc1ccc2cc(C(=O)NC(=N)N)ccc2c1` have Average Bacterial Assay Score, Vpu strictly under 0.4?
Output line: class 0

Input line: Does `N=C(N)NC(=O)c1ccc2c(Cl)cccc2c1` have Average Bacterial Assay Score, Vpu strictly under 0.4?
Output line: class 1

Input line: Does `N=C(N)NC(=O)/C=C/c1cccc2c1OCO2` have Average Bacterial Assay Score, Vpu strictly under 0.4?
Output line: class 0

Input line: Does `N=C(N)NC(=O)C=Cc1ccc(Cl)c(Cl)c1` have Average Bacterial Assay Score, Vpu strictly under 0.4?
Output line: class 0
